Molecular target: Na+/I− symporter (NIS) (Rattus norvegicus)
Sequence (Q63008 1-618): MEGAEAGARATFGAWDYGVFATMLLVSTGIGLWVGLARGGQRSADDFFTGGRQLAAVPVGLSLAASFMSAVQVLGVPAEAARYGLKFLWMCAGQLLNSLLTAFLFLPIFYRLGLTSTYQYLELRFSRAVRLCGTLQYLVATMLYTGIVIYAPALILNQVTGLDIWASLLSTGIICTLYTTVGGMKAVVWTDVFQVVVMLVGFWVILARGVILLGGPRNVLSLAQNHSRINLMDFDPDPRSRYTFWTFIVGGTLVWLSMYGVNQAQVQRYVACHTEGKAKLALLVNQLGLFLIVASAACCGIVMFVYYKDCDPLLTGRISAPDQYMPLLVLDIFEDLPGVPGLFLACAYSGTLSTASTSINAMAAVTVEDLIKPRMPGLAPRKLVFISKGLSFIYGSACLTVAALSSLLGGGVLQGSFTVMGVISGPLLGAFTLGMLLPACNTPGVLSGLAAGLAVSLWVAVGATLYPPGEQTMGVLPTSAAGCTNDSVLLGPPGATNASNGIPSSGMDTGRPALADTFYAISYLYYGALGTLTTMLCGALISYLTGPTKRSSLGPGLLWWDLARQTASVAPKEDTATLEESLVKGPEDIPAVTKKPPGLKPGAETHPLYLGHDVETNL
Experiment: inhibition of NIS-mediated […] radioiodide uptake
Quantity measured: IC50 (µM)
Give bare numbers, in µM.

Q. Need IC50 of [O-][Cl+3]([O-])([O-])O [perchlorate] , thanks.
A. 3
